Taken from PubChem BioAssay AID651640.

experiment: inhibitors of DENV2 cytopathic effect, primary screen, cell-based, plate reader, single concentration (AID 651640); settings: DENV2-infected cells, cytopathic effect rescue, at 9.99 µM, hits give high values;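 further: 0% = median of neutral control wells and 100% = median of positive control wells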
Out of some 350,000 compounds screened, about 6,000 (1.7%) were called active. About 5% were inconclusive and are not listed. What follows is part of a selection rich in actives, with near analogues and random picks from the rest.
Reported Endpoint: CPE inhibition (%)

INSERT INTO measurements (smiles_str, reported_endpoint, numeric_readout) VALUES
  ('CC(C)C#Cc1ccc([C@H]2[C@H](CO)N3CCCCN(C(=O)c4ccc(F)cc4)C[C@@H]23)cc1', 'CPE inhibition', 10.5),
  ('COc1ccc(C#Cc2ccc([C@@H]3[C@@H](CO)N4CCCCN(C(=O)c5ccncc5)C[C@@H]34)cc2)cc1', 'CPE inhibition', 50.9),
  ('CCC(=O)N1CCCCN2[C@H](CO)[C@@H](c3ccc(-c4cccnc4)cc3)[C@H]2C1', 'CPE inhibition', -0.425),
  ('C[C@H](O)C#Cc1ccc([C@@H]2[C@@H](CO)N3CCCCN(C(=O)c4ccncc4)C[C@@H]23)cc1', 'CPE inhibition', -16.7);
